PROTOCOL TEXT: CLint (intrinsic clearance) assay, microsomal incubation
Format: in vitro ADME, Human
DETAILS: human, liver microsomes, pH 7.4, human liver microsomes 0.5 mg/mL protein, NADPH, 37° C., up to 30 min
Answer 0 (no) if microsomal CLint at 0.8 μM is under 40 µL/min/mg, and 1 (yes) if it is 40 µL/min/mg or more.

# MOLECULE, ASSIGNED LABEL
rows = [
    ("Cn1ncc2cc(-c3cncc(Cl)c3N3CCC4(CC3)C(=O)NN=C4C(F)(F)F)ccc21", "0 (no)"),
    ("N#CCCn1cc(-c2ccc(-c3cncc(Cl)c3N3CCC4(CC3)CNC(=O)O4)cc2)cn1", "1 (yes)"),
]

// inclusive: microsomal CLint at 0.8 μM at least 40 µL/min/mg? input: `CN1c2ccc(-c3cncc(Cl)c3N3CCC4(CC3)NC(=O)CNC4=O)cc2CS1(=O)=O`
0 (no)

###

PROTOCOL TEXT: CLint (intrinsic clearance) assay, microsomal incubation
Assay type: in vitro ADME, Human
DETAILS: human, liver microsomes, pH 7.4, human liver microsomes 0.5 mg/mL protein, NADPH, 37° C., up to 30 min
MEASURE: microsomal CLint at 0.8 μM (µL/min/mg)
Number only, in µL/min/mg; omit the unit.

# INPUT SMILES, microsomal CLint at 0.8 μM / µL/min/mg
rows = [
    ("O=C1CC2(CCN(c3c(Cl)cncc3-c3ccc(N4CCOCC4)cc3)CC2)C(=O)N1", 66),
    ("Cn1cc(-c2ccc(-c3cncc(Cl)c3N3CCC4(CC3)C(=O)Nc3cccnc34)cc2)cn1", 65),
]

Moving on to the next compound.
State its microsomal CLint at 0.8 μM for this compound: `O=C1NCC2(CCN(c3c(Cl)cncc3-c3ccc4cnccc4c3)CC2)O1`
28

###

Listed molecules paired with reported Human Clint
PROTOCOL TEXT: CLint (intrinsic clearance) assay, microsomal incubation
Format: in vitro ADME, Human
DETAILS: human liver microsomes 0.5 mg/mL protein, NADPH, 37° C., up to 30 min
Write the answer as a number in µL/min/mg, unit excluded.

# MOLECULE, RESULT UNIT, Human Clint
rows = [
    ("CC1=NNC(=O)C12CCN(c1c(Cl)cncc1-c1ccc3c(c1)CS(=O)(=O)N3C)CC2 [Example 41]", "µL/min/mg", 85),
    ("Cn1nc(N)c2ccc(-c3cncc(Cl)c3N3CCC4(CCNC4=O)CC3)cc21 [Example 24]", "µL/min/mg", 78),
    ("CN1c2ccc(-c3cncc(Cl)c3N3CCC4(CC3)C(=O)NN=C4C(F)(F)F)cc2CS1(=O)=O [Example 58]", "µL/min/mg", 89),
    ("CN1c2ccc(-c3cncc(F)c3N3CCC4(CC3)CNC(=O)O4)cc2CS1(=O)=O [Example 80]", "µL/min/mg", 18),
    ("Cn1cc(-c2ccc(-c3cncc(Cl)c3N3CCC4(CC3)CNC(=O)O4)cc2)cn1 [Example 9]", "µL/min/mg", 40),
]

Note down Human Clint recorded for Cn1cc(-c2ccc(-c3cncc(Cl)c3N3CCC4(CC3)NC(=O)CNC4=O)cc2)cn1 [Example 17]
11

Return value of Human Clint for input Nc1n[nH]c2cc(-c3cncc(Cl)c3N3CCC4(CCNC4=O)CC3)ccc12 [Example 7] , no commentary.
27

Supply Human Clint value. Item: Cn1ncc2cc(-c3cncc(Cl)c3N3CCC4(CC3)C(=O)NCC4O)ccc21 (centres unmarked) [Example 70]
24
